- Target: Histone acetyltransferase KAT7 (Homo sapiens, UniProt O95251)
- Sequence (O95251 whole entry): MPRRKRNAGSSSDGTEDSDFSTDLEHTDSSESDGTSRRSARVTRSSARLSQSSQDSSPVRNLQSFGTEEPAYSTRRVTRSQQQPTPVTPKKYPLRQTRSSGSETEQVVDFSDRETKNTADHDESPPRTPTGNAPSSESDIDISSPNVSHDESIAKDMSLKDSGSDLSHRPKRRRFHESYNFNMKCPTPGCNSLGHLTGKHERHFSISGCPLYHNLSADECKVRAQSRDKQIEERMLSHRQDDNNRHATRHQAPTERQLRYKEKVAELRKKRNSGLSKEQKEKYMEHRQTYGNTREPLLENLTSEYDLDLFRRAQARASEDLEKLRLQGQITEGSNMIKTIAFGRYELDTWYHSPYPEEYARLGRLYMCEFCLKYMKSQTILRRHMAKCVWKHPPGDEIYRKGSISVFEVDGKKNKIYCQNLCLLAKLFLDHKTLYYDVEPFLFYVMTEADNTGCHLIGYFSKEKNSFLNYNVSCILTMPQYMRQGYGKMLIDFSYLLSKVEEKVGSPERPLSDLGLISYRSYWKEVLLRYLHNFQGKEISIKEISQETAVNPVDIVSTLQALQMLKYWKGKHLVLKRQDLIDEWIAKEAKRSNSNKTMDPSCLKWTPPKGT
Readout type: IC50

Data request: Any idea what its IC50 is? The compound is O=S(=O)(Nc1cc(-c2ccccc2)on1)C1CC1 [US20240277683, Example 29]
Data returned: > 125 µM
